Data provenance: paper PMC6155852

assayDetails: Plasma pharmacokinetics of KBGY constituents in rats after single oral administration of KBGY
Type: in vivo, rat
measurementSetup: in vivo; rat plasma, single oral KBGY 2 g/kg; read-out: t1/2 (converted)
Method: KBGY prepared in water was administered orally to 16 h fasted rats at a dose of 2 g/10 mL/kg (n = 3). […] Plasma was obtained by centrifugation at 1700× g for 15 min at 4 °C and stored at −80 °C until analysis. For quantification of the dicarboxylic acid, 50 µL of standard solution, 100 µL of acetic acid (2%, v/v), and 650 µL of ethyl acetate were added to 200 µL of plasma samples, followed by mixing and centrifugation (7000× g, 5 min). […]
reportedMetric: half-life (min)
Just the number please, in min, no unit attached.

N#C[C@H](O[C@@H]1O[C@H](CO)[C@@H](O)[C@H](O)[C@H]1O)c1ccccc1 [Prunasin]	69.6

Now for the molecule whose half-life we want.
Item: N#C[C@H](O[C@@H]1O[C@H](CO[C@@H]2O[C@H](CO)[C@@H](O)[C@H](O)[C@H]2O)[C@@H](O)[C@H](O)[C@H]1O)c1ccccc1 [Amygdalin] | half-life: 39.4

====

assayDetails: Plasma pharmacokinetics of KBGY constituents in rats after single oral administration of KBGY
Type: in vivo, rat
measurementSetup: rat, in vivo, po, 2 g/kg
Below, each of the molecules is paired with its reported Tmax value.
A number alone suffices; assume h.

Some solved cases for reference:
C=C(CC[C@@H](C(=O)O)[C@H]1[C@H](O)C[C@@]2(C)C3=C(CC[C@]12C)[C@@]1(C)CC[C@H](OC(C)=O)C(C)(C)[C@@H]1CC3)C(C)C	4
COc1cc([C@H]2OC[C@H]3[C@@H]2CO[C@@H]3c2cc(OC)c(O)c(OC)c2)cc(OC)c1O (racemic) [(±)-Syringaresinol]	0.25
COc1cc(C[C@H]2CO[C@H](c3ccc(O)c(OC)c3)[C@H]2CO)ccc1O	4

// sample O=C/C=C/c1ccccc1 , its Tmax was 1

The recorded Tmax for C=C(CC[C@@H](C(=O)O)[C@H]1[C@H](O)C[C@@]2(C)C3=C(CC[C@]12C)[C@@]1(C)CC[C@H](O)C(C)(C)[C@@H]1CC3)C(C)C is 0.5

Kindly note the recorded Tmax for COc1cc(C(=O)O)cc(O)c1O , which is 1

The recorded Tmax for entry COc1c(O)cc(C(=O)O)cc1O equals 1

====

assayDetails: Plasma pharmacokinetics of KBGY constituents in rats after single oral administration of KBGY
Format: in vivo, rat
measurementSetup: rat, in vivo, po, 2 g/kg
reportedMetric: half-life (h)
Lab book: enter the figure in h, no units written.

Example compounds with recorded half-life:
COc1cc(C(=O)O)cc(O)c1O	6.59
C[C@@]12C[C@@]3(O)O[C@@H](O1)[C@]1(COC(=O)c4ccccc4)[C@H]3C[C@@]12O[C@@H]1O[C@H](CO)[C@@H](O)[C@H](O)[C@H]1O	2.72
C=C(CC[C@@H](C(=O)O)[C@H]1[C@H](O)C[C@@]2(C)C3=C(CC[C@]12C)[C@@]1(C)CC[C@H](O)C(C)(C)[C@@H]1CC3)C(C)C	4.66
COc1c(O)cc(C(=O)O)cc1O	0.906
O=C(O)c1cc(O)c(O)c(O)c1	0.772

Value of half-life reported for the compound O=C/C=C/c1ccccc1 is 5.21

So for OC[C@H](Cc1cccc(O)c1)[C@H](CO)Cc1cccc(O)c1 , the logged half-life turned out to be 27.3
